// reported IC50 per item
# Tested on: human Werner helicase (WRN-BV08, Uniprot Q14191, amino acids 517-1235 with L1074F point mutation) (Homo sapiens, UniProt Q14191, L1074F)
# Construct: Uniprot Q14191, amino acids 517-1235 with L1074F point mutation; TEV-cleavable 8×His (C, cleaved yes); made in house; host or cells: Sf9 insect cells (baculovirus)
# Sequence (Q14191 with tags, fused parts or gaps L1074F limits assumed): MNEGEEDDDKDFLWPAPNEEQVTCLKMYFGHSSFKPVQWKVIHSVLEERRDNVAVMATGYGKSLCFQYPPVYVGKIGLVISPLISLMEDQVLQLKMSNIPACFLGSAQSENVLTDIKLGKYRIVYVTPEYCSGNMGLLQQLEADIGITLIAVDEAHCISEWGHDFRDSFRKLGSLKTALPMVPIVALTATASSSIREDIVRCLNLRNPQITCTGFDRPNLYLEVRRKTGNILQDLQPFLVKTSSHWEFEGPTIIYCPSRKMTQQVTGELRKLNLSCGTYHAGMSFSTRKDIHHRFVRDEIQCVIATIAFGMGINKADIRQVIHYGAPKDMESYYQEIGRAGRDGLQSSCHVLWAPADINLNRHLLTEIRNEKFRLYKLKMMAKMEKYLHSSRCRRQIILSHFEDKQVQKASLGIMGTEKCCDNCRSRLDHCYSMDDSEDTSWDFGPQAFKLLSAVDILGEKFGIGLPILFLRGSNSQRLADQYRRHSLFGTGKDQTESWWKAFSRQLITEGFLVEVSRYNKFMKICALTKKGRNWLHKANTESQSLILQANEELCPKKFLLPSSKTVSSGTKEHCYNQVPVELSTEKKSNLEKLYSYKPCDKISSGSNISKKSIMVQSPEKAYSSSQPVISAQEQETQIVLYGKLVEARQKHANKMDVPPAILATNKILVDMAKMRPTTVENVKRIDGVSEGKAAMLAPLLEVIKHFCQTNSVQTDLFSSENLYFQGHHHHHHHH
# Experiment: WRN (BV08) ADP-Glo Assay
# Format: biochemical
# Study conditions: 0.15 nM WRN, 5 μM ATP, 0.1 nM DNA duplex, 15 min preincubation, 60 min at 25° C., pH 7.5, 1% DMSO; read-out: ADP-Glo_hWRN_IC50

Some solved cases for reference:
Memo: O=C(Cc1ccc(C2CCCCC2)cc1)N(Cc1ccncc1)C1C=CS(=O)(=O)C1 (centres unmarked) , reported IC50: 0.5 to 5 µM

Entry O=C(Cn1cc(-c2ccc(F)c(F)c2)cn1)N(Cc1nc(C2CC2)cs1)C1C=CS(=O)(=O)C1 (single isomer, unassigned) [I-604] — recorded IC50 = 0.5 to 5 µM

Field IC50 (entry COc1cc(CN(C(=O)Cc2ccc(OC3CC3)cc2)C2C=CS(=O)(=O)C2)ccn1 (centres unmarked) ) reads 10 to 50 µM

Quick note, IC50 for O=C(Cc1ccc(-n2cccc2)cc1)N(Cc1nc(CC(F)(F)F)cs1)C1C=CS(=O)(=O)C1 (centres unmarked) landed at 0.5 to 5 µM

Per the record, COc1cc(CN(C(=O)Cc2ccc(C(F)(F)F)cc2)C2C=CS(=O)(=O)C2)ccn1 (single isomer, unassigned) [I-57] has IC50 of < 0.5 µM

Others:
// sample O=C(Cn1cc(-c2ccc(F)cc2)cn1)N(Cc1nc(C2CC2)cs1)C1C=CS(=O)(=O)C1 (centres unmarked) [I-49] , its IC50 was < 0.5 µM

Reported IC50 of O=C(Cc1ccc2cc(Br)ccc2c1)N(Cc1ccncc1)C1C=CS(=O)(=O)C1 (centres unmarked) : 5 to 10 µM

Entry O=C(CCc1nc2cc(Cl)ccc2s1)N(Cc1ccncc1)C1C=CS(=O)(=O)C1 (centres unmarked) ; IC50 = > 50 µM

====

Each item that follows carries a reported IC50.
# Tested on: human Werner helicase (WRN-BV08, Uniprot Q14191, amino acids 517-1235 with L1074F point mutation) (Homo sapiens, UniProt Q14191, L1074F)
# Construct: Uniprot Q14191, amino acids 517-1235 with L1074F point mutation; TEV-cleavable 8×His (C, cleaved yes); made in house; host or cells: Sf9 insect cells (baculovirus)
# Experiment: WRN (BV08) ADP-Glo Assay
# Type: biochemical
# Study conditions: 0.15 nM WRN, 5 μM ATP, 0.1 nM DNA duplex, 15 min preincubation, 60 min at 25° C., pH 7.5, 1% DMSO; read-out: ADP-Glo_hWRN_IC50

Form: compound = O=C(Cc1ccc(-n2cccc2)cc1)N(Cc1ccc(B(O)O)cc1)C1C=CS(=O)(=O)C1 (centres unmarked) ; IC50 = 10 to 50 µM

Given item O=C(Cc1ccc(C(F)(F)F)cc1)N(Cc1ccncc1)C1C=CS(=O)(=O)C1 (centres unmarked) , the value recorded as its IC50 is 5 to 10 µM

Looking up O=C(C(c1ccc(-c2ccc(F)cc2)cc1)N1CCCC1=O)N(Cc1ccncc1)C1C=CS(=O)(=O)C1 (centres unmarked) , I see its IC50 listed as 10 to 50 µM

Lab book: IC50 of COc1cc(CN(C(=O)Cc2ccc([C@@H]3C[C@H]3C(F)(F)F)cc2)[C@@H]2C=CS(=O)(=O)C2)ccn1 (mixture of isomers) noted as 5 to 10 µM

Reported IC50 ( O=C(Cc1cnn(-c2ccccc2)n1)N(Cc1ccncc1)C1C=CS(=O)(=O)C1 (centres unmarked) ) = > 50 µM

The compound identified as COC(C(=O)N(Cc1ccncc1)C1C=CS(=O)(=O)C1)c1ccc(-c2ccc(F)cc2)cc1 (centres unmarked) [I-144] registered its IC50 at 0.5 to 5 µM

Entry COc1cc(CN(C(=O)Cn2ccc(-c3ccc(F)cc3)cc2=O)[C@@H]2C=CS(=O)(=O)C2)ccn1 , IC50 reported as < 0.5 µM

Alright, here's another compound for you.
The recorded IC50 for O=C(Cc1ccc(-n2cccc2)cc1)N(Cc1cc(F)ccc1F)C1C=CS(=O)(=O)C1 (centres unmarked) is 10 to 50 µM

====

# Tested on: human Werner helicase (WRN-BV08, Uniprot Q14191, amino acids 517-1235 with L1074F point mutation) (Homo sapiens, UniProt Q14191, L1074F)
# Construct: Uniprot Q14191, amino acids 517-1235 with L1074F point mutation; TEV-cleavable 8×His (C, cleaved yes); made in house; host or cells: Sf9 insect cells (baculovirus)
# Experiment: WRN (BV08) ADP-Glo Assay
# Assay type: biochemical
# Study conditions: 0.15 nM WRN, 5 μM ATP, 0.1 nM DNA duplex, 15 min preincubation, 60 min at 25° C., pH 7.5, 1% DMSO; read-out: ADP-Glo_hWRN_IC50
Readout type: IC50

// solved cases for IC50 follow
IC50 measured on COc1cc(CN(C(=O)C(c2ccc(-c3ccc(F)c(F)c3)cc2F)n2cc(C(F)F)cn2)[C@@H]2C=CS(=O)(=O)C2)ccn1 (single isomer, unassigned) [I-711] = > 50 µM

Entry CC(C)(C)c1ccc(CC(=O)N(Cc2ccncc2)C2C=CS(=O)(=O)C2)cc1 (stereo not shown) — recorded IC50 = 10 to 50 µM

Short answer for COc1cc(CN(C(=O)Cc2ccc(-n3cccc3C)cn2)C2C=CS(=O)(=O)C2)ccn1 (stereo not shown) : IC50 was 5 to 10 µM

The value of IC50 measured for the molecule O=C(Cn1cc2cc(C(F)(F)F)ccc2n1)N(Cc1ccncc1)C1C=CS(=O)(=O)C1 (stereo not shown) turned out to be 0.5 to 5 µM

# IC50 (molecule: COc1cc(CN(C(=O)C(C(=O)N(C)C)c2ccc(S(F)(F)(F)(F)F)cc2)C2C=CS(=O)(=O)C2)ccn1 (stereo not shown) ) is 0.5 to 5 µM

Quick note, IC50 for O=C(Cc1ccc(S(F)(F)(F)(F)F)cc1)N(CCc1nc(C2CC2)cs1)C1C=CS(=O)(=O)C1 (stereo not shown) landed at 0.5 to 5 µM

Summary for this molecule, O=C(Cc1ccc(C(F)(F)F)cc1Br)N(Cc1ccncc1)C1C=CS(=O)(=O)C1 (stereo not shown) : IC50 is 10 to 50 µM

Item: O=C(C1CCC2(CCC2)CO1)N(Cc1ccncc1)C1C=CS(=O)(=O)C1 (stereo not shown) | IC50: > 50 µM

---
Entry O=C(Cc1ccc(C2CCCC2)cc1)N(Cc1ccncc1)C1C=CS(=O)(=O)C1 (stereo not shown) ; IC50 = 0.5 to 5 µM

====

# Tested on: human Werner helicase (WRN-BV08, Uniprot Q14191, amino acids 517-1235 with L1074F point mutation) (Homo sapiens, UniProt Q14191, L1074F)
# Construct: Uniprot Q14191, amino acids 517-1235 with L1074F point mutation; TEV-cleavable 8×His (C, cleaved yes); made in house; host or cells: Sf9 insect cells (baculovirus)
# Experiment: WRN (BV08) ADP-Glo Assay
# Format: biochemical
# Study conditions: 0.15 nM WRN, 5 μM ATP, 0.1 nM DNA duplex, 15 min preincubation, 60 min at 25° C., pH 7.5, 1% DMSO; read-out: ADP-Glo_hWRN_IC50
Entries and their IC50 values follow.

IC50 measured on O=C(/C=C/c1ccc(C(F)(F)F)cc1)N(Cc1ccncc1)C1C=CS(=O)(=O)C1 (stereo not shown) = > 50000 nM

In plain terms, O=C(Cc1ccc(-n2cccc2)cc1)N(Cc1ccc(Br)cc1)C1C=CS(=O)(=O)C1 (stereo not shown) has a documented IC50 of 500 to 5000 nM

Input COc1cc(CN(C(=O)C(C(=O)N(C)C)c2ccc(-c3ccc(F)c(F)c3)cc2F)C2C=CS(=O)(=O)C2)ccn1 (stereo not shown) [I-37] . Output IC50: < 500 nM

Noted for CSC(C(=O)N(Cc1ccnc(C(C)(C)O)c1)C1C=CS(=O)(=O)C1)c1ccc(-c2ccc(F)c(F)c2)cc1F (stereo not shown) : its IC50 reads < 500 nM

====

# Tested on: human Werner helicase (WRN-BV08, Uniprot Q14191, amino acids 517-1235 with L1074F point mutation) (Homo sapiens, UniProt Q14191, L1074F)
# Construct: Uniprot Q14191, amino acids 517-1235 with L1074F point mutation; TEV-cleavable 8×His (C, cleaved yes); made in house; host or cells: Sf9 insect cells (baculovirus)
# Experiment: WRN (BV08) ADP-Glo Assay
# Type: biochemical
# Study conditions: 0.15 nM WRN, 5 μM ATP, 0.1 nM DNA duplex, 15 min preincubation, 60 min at 25° C., pH 7.5, 1% DMSO; read-out: ADP-Glo_hWRN_IC50
Each item that follows carries a reported IC50.

Worked set:
COc1cc(CN(C(=O)Cc2ccc(-c3csc(C)n3)cc2F)C2C=CS(=O)(=O)C2)ccn1 (stereo not shown) [I-573] yielded IC50 of > 50 µM

Input O=C(Cc1ccc(C23CC(C2)C3)cc1)N(Cc1ccncc1)C1C=CS(=O)(=O)C1 (stereo not shown) [I-347] . Output IC50: 10 to 50 µM

The molecule identified as CC(C)(O)c1csc(CN(C(=O)Cn2cc(-c3cc(F)c(F)c(F)c3)cn2)C2C=CS(=O)(=O)C2)n1 (single isomer, unassigned) [I-799] registered its IC50 at 0.5 to 5 µM

CN(C)C(=O)C(C(=O)N(Cc1nc(C2CC2)cs1)C1C=CS(=O)(=O)C1)c1ccc(-c2ccc(F)cc2)cc1F (stereo not shown) [I-23] yielded IC50 of < 0.5 µM

The molecule CCc1csc(CN(C(=O)Cc2ccc(S(F)(F)(F)(F)F)cc2)C2C=CS(=O)(=O)C2)n1 (stereo not shown) [I-628] showed IC50 equal to < 0.5 µM

Recorded IC50 (molecule CC(F)(F)c1ccc(CC(=O)N(Cc2ccncc2)C2C=CS(=O)(=O)C2)cc1 (stereo not shown) [I-191] ): 0.5 to 5 µM

Now consider a different molecule.
Please fill in: IC50 reported for COC(C(=O)N(Cc1ccnc(C(C)(C)O)c1)C1C=CS(=O)(=O)C1)c1ccc(-c2ccc(F)c(F)c2)cc1F (single isomer, unassigned) [I-578] = 10 to 50 µM
